Target: T1, human DLL3 (ACRO, DLL3-H52H4) (human, UniProt Q9NYJ7 27-492)
T1 construct: Bought
T1 sequence: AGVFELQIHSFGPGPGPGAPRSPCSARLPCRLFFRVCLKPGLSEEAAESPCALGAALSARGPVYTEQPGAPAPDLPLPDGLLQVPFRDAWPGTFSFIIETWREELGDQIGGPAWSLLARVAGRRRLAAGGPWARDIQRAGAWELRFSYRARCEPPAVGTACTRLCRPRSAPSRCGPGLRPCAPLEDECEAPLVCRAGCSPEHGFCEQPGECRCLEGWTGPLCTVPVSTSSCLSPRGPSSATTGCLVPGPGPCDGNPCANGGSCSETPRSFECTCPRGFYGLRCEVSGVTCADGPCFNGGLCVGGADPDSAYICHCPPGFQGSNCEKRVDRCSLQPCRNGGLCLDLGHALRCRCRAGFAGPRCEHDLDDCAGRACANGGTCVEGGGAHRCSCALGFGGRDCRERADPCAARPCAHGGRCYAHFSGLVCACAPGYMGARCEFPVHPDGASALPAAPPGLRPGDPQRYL
Assay: SPR Biacore 8K, Ab captured on Protein A
Assay readout: kon (M⁻¹ s⁻¹)
Express your answer in M⁻¹ s⁻¹, writing the number without its unit.

// below: answered binders
hu30L5H11 (antibody, human IgG1, kappa, V domains shown) VH: EVRLVQFGAVVKKPGASVKVSCKASGYTFTDYYMNWVRQAPGQSLEWMGIINPYTGDTSYNQKFRGRVTLTVDKSSSTAYMELSSLTSEDTAVYYCARYHYGPHLEGYFDVWGQGTTVTVSS VL: DIQMTQSPSSLSASVGDRVTITCKASENVGYVSWYQQKPGKSPKLLIYGASNRYTGVPDRFSGSGSGTDFTLTISSLQPEDFATYYCGQSYSYPLTFGSGTKLEIKR | 391000
hu6L1H2 (antibody, human IgG1, kappa, V domains shown) VH: EVQLVQSGAEVKKPGASVKVSCKASGYTFTDYYMNWVRQAPGQRLEWMGIINPYSGVTIYNHKFKGRVTLTVDKSANTAYMELSSLRSEDTAVYYCARQDSLLDYAMDYWGQGTTVTVSS VL: DIQMTQSPSSLSASVGDRVTITCHASQGISGNMGWLQQKPGKAPKGLIYHGANLEDGVPSRFSGSGSGTDFTLTISSLQPEDFATYYCVQYAQFPYTFGGGTKVEIKR | 787000

Q: GET /values?readout=kon&item= hu110L1H4 (antibody, human IgG1, kappa, V domains shown) VH: EVQLVQSGAEVKKPGASVKVSCKTSGYTFTDYYMNWVRQAPGQSLEWMGIINPYSGGTSYTQKFKGRVTITVDKSASTAYMELSSLRSEDTAVYYCARHFYDSSYLTYSTMDYWGQGTTVTVSS VL: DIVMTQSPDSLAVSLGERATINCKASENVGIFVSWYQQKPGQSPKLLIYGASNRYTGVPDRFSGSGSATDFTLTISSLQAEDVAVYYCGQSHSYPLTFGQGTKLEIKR
Ans: 527000
